Provenance of the data: the kinase profiling compilation of Christmann-Franck et al. (2016)

molecular target: ALK EML4 (human) (UniProt Q9HC35+Q9UM73); experiment: Caliper, Mobility shift assay off-chip; conditions: compound 0.2 µM
Sequence (Q9HC35 whole entry, looked up): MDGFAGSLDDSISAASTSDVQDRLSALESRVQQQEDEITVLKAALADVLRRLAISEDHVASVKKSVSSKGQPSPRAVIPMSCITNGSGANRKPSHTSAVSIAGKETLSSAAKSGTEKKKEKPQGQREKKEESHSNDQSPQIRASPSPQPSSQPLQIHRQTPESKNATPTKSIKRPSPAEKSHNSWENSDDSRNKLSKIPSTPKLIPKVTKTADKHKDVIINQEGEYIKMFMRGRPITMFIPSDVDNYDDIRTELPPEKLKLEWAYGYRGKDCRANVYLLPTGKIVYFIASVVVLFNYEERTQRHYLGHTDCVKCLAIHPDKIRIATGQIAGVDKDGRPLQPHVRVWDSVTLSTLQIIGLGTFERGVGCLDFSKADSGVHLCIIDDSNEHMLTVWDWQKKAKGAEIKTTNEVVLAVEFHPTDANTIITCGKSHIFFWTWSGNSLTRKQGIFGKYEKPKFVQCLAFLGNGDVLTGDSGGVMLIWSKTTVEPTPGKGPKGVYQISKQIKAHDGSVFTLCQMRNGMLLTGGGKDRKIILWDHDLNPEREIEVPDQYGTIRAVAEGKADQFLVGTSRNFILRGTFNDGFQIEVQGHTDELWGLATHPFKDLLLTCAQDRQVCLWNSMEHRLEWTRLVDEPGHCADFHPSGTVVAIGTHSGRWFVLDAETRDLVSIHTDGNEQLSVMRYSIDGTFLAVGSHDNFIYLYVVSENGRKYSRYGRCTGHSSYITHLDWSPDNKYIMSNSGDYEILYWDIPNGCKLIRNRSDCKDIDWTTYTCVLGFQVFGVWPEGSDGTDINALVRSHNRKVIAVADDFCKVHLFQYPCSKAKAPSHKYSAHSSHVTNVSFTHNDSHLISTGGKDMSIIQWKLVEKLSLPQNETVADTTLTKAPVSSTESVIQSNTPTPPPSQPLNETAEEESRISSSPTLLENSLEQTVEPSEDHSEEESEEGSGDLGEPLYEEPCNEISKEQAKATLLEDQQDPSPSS
Sequence (Q9UM73 whole entry, looked up): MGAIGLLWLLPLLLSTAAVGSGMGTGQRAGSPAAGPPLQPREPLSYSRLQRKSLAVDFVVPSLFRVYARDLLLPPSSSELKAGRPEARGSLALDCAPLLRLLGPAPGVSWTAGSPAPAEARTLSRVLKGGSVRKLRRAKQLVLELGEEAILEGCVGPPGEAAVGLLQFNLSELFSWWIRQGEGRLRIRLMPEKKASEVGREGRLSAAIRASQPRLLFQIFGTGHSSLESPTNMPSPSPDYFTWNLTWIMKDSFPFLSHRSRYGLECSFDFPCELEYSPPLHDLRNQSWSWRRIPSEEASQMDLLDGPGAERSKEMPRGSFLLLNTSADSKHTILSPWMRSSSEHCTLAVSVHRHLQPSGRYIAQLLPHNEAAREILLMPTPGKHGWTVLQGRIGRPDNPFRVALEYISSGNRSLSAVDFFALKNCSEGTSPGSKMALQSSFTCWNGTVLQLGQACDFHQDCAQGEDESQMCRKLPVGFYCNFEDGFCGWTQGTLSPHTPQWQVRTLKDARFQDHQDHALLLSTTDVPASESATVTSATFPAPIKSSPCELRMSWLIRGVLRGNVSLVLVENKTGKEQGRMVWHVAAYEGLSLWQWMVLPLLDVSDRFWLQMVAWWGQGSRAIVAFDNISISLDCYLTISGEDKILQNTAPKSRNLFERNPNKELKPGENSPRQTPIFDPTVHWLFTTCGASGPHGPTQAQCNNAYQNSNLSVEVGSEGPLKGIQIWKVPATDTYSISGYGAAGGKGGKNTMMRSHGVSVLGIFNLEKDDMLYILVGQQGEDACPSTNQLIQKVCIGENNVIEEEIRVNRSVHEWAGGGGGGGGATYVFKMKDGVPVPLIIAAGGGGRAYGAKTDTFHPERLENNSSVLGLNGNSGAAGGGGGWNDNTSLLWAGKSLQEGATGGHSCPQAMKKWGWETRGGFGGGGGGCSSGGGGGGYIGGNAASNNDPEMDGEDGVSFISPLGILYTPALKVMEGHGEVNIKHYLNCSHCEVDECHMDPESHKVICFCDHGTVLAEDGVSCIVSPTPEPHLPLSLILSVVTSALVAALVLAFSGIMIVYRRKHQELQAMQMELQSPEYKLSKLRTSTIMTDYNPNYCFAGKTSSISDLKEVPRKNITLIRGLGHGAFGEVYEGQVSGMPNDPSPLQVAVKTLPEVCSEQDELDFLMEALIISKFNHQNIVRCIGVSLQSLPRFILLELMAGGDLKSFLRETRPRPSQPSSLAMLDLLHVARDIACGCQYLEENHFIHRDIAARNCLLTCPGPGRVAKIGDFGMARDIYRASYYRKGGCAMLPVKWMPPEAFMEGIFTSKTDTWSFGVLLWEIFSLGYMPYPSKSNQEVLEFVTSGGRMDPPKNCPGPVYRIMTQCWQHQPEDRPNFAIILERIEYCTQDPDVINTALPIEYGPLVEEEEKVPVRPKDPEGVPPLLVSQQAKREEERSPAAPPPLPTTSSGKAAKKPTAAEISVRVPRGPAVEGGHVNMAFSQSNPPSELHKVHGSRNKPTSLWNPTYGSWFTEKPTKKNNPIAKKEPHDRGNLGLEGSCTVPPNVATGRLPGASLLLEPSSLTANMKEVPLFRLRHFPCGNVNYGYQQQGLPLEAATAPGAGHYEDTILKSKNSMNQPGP
REPORTED ENDPOINT: inhibition
Answer shape: numeric part, then the unit.

Some molecules with recorded inhibition:
Cc1ccc(Nc2nccc(N(C)c3ccc4c(C)n(C)nc4c3)n2)cc1S(N)(=O)=O | 6.8%
CNC(=O)c1cc(Oc2ccc(NC(=O)Nc3ccc(Cl)c(C(F)(F)F)c3)cc2)ccn1 | 2.8%
CCN(CC)CCNC(=O)c1c(C)[nH]c(/C=C2\C(=O)Nc3ccc(F)cc32)c1C | 70.5%

# inhibition of `COc1cc2c(Oc3ccc4[nH]c(C)cc4c3F)ncnc2cc1OCCCN1CCCC1` = 0.1%
